Where these numbers come from: patent US20060229240A1

- TARGET_OR_SYSTEM: T1, PTH/PTHrP receptor (P1R), wild-type, full-length (human, UniProt Q03431 27-593)
- T1 sequence (looked up): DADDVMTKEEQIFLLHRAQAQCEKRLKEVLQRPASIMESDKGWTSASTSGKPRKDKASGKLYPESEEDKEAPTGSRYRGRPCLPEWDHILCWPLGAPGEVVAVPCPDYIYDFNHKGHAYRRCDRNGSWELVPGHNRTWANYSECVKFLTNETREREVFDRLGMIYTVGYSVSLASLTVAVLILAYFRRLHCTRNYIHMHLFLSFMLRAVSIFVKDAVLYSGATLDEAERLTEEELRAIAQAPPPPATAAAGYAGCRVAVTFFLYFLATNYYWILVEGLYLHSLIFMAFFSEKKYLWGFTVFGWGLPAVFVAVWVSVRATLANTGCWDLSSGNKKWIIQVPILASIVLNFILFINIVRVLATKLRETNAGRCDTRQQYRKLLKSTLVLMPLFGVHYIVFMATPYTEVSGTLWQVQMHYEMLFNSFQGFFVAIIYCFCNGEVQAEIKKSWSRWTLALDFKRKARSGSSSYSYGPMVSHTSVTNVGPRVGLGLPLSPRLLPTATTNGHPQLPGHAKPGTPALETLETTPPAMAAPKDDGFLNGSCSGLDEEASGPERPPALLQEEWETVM
- ASSAY_METHOD_TEXT: cell-based or functional assay
No end group written: not given here.
MEASURED_PROPERTY: cAMP EC50

>  <BINDER>
AVAEIALMHAR-NH2 [[Ala^6, Ala^10]PTH(1-11)]

>  <RECORDED_RESULT>
160 µM

$$$$
>  <BINDER>
AVAEIALMHQR-NH2 [[Ala^6]PTH(1-11)]

>  <RECORDED_RESULT>
330 µM

$$$$
>  <BINDER>
AVAEIQLMHQR-NH2 [PTH(1-11) (AlaValAlaGluIleGlnLeuMetHisGlnArg-amide)]

>  <RECORDED_RESULT>
5 µM

$$$$
>  <BINDER>
AVAEIQLMHAR-NH2 [[Ala^10]PTH(1-11)]

>  <RECORDED_RESULT>
11 µM

$$$$
